# assayOverview: chemical genetic growth profiling, strain panel (AID 1159580);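 further: tested at 20 µM; growth read once vehicle control cultures reached saturation at 30 °C; lower values mean less growth of the strain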
# experimentalParameters: S. cerevisiae deletion strains, growth OD, locus YDL134C, strain PPH21
The campaign covered roughly 5,500 compounds. About 2,000 (36%) were called active. About 18% were inconclusive and are not listed. No stated cut-off is given here; in the data, active means normalized growth mostly below about 0.91 (no sharp cut-off); inconclusive means no clear call, values can overlap the other calls; inactive means mostly above about 0.92. The list shows a part of the results.
Give one outcome, nothing more. List: active, inactive

# molecule, assignedLabel
rows = [
    ("N#Cc1ccc(Oc2ccc(Cl)cc2)nc1", "inactive"),
    ("COc1ccc2c(c1OC)OC[C@@H](c1ccc(OC)c(OC)c1OC)C2", "inactive"),
]

[ask] Identify the outcome logged in this assay for the molecule shown: CCc1cccc2c3c([nH]c12)C(CC)(CC(=O)O)OCC3 (configuration not stated)
[reply] inactive

[ask] Identify the outcome logged in this assay for the molecule shown: Cc1cc(C)cc(N2C(=O)CC(Sc3ccccc3C(=O)O)C2=O)c1 (configuration not stated)
[reply] active

[ask] Identify the outcome logged in this assay for the molecule shown: "CCNc1nc(Cl)nc(NCC)n1"
[reply] inactive

[ask] Identify the outcome logged in this assay for the molecule shown: "COC(=O)c1scc(S(=O)(=O)C(C)C)c1N/N=C(/C#N)C(=O)c1ccccc1"
[reply] inactive

[ask] Identify the outcome logged in this assay for the molecule shown: "COc1cnc(NS(=O)(=O)c2ccc(N)cc2)nc1"
[reply] inactive
